# Assay System: T1, IL10Rα/IL2Rγ receptor (human) (UniProt Q13651)
# T1 sequence (looked up) 1: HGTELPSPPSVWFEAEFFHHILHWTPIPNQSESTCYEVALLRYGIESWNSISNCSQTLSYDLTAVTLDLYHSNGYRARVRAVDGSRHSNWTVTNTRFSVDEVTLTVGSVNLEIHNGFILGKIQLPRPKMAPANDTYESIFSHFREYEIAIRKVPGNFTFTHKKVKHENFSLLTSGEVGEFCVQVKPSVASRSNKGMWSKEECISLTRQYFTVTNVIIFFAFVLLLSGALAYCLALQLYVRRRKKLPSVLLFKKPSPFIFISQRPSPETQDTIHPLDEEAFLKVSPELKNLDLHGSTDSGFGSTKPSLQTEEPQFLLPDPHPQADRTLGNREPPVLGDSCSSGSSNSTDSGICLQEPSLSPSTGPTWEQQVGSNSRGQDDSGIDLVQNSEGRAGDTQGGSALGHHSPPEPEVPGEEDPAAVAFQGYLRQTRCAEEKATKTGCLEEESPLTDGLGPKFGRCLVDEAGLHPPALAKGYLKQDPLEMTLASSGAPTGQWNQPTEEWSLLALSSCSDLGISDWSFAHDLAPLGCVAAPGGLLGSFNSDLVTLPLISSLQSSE
# T1 sequence (looked up) 2: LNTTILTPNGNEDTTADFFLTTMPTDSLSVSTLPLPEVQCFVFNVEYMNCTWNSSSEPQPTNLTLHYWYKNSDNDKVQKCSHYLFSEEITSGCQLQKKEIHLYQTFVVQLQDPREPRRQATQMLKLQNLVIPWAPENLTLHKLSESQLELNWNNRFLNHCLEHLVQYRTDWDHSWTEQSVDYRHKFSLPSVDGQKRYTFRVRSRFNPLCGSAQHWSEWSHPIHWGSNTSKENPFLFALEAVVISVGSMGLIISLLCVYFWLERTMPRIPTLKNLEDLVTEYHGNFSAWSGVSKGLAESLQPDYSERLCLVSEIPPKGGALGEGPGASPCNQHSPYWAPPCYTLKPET
# Test: cell-based or functional assay
Observation Type: IL-1β secretion, LPS treated monocytes, at 10 µM (pg/mL)
I only need the number, in pg/mL, no unit after it.

Binder: hIL10Ra_VHH14 - hIL2Rg_VHH19, linker …, tag his (bispecific antibody, not shown: small tags and cut ends) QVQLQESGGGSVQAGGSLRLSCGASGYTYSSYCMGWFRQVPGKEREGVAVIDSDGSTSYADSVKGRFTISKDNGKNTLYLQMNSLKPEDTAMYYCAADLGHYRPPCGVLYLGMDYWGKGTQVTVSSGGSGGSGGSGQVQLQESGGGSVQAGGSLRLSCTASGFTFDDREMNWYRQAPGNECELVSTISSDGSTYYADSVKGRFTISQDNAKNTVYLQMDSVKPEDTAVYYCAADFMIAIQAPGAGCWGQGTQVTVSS
Unit Descriptor: pg/mL
Meas Value: 7120
--
Binder: hIL10Ra_VHH14 - hIL2Rg_VHH19, linker GGGS, tag Fc (bispecific antibody, not shown: a dimerising Fc or GST) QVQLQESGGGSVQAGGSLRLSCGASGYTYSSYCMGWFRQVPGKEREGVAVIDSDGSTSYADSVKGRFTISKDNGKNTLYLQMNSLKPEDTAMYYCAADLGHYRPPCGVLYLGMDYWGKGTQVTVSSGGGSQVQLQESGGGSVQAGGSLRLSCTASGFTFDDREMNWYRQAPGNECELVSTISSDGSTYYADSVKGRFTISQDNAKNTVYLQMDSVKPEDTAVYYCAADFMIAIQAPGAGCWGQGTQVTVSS
Unit Descriptor: pg/mL
Meas Value: 4140

Sure, the documented IL-1β secretion, LPS treated monocytes, at 10 µM for hIL10Ra_VHH14 - hIL2Rg_VHH19, No linker, tag his (bispecific antibody, not shown: small tags and cut ends) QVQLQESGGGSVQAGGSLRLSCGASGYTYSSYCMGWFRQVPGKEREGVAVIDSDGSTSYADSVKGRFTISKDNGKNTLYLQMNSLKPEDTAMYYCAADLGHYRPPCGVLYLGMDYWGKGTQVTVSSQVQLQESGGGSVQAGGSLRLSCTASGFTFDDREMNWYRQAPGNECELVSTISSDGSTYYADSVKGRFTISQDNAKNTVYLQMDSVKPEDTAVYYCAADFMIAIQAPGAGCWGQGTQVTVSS is 5790

Sure, the documented IL-1β secretion, LPS treated monocytes, at 10 µM for hIL10Ra_VHH14 - hIL2Rg_VHH19, linker GS, tag his (bispecific antibody, not shown: small tags and cut ends) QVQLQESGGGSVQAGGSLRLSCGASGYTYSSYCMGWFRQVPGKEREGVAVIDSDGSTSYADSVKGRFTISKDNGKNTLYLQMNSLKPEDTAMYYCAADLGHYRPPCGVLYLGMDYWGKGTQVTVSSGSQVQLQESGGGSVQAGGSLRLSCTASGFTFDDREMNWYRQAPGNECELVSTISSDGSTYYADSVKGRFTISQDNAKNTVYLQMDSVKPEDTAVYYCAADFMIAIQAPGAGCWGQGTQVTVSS is 6710
